Kindly state MIC for each of the entries shown.
- Tested on: P. mirabilis NCTC 12442
- testMethodNotes: Broth microdilution MIC/MBC
- Format: cell-based
- assayContext: P. mirabilis NCTC 12442, 24 h at 37° C.
Response body: numeric value in µM, unit text excluded.

// query Any idea what MIC was measured for CCCCCCCCCCCCCCCC[n+]1cccc2ccccc21.[Br-] ?
// result 70.24

// query Record request: MIC value, item CCCCCCCCCCn1cc[n+](C)c1.[Br][Ag-][Br]
// result 79.78

// query Any idea what its MIC is? The molecule is CCCCCCCC[n+]1ccn(C)c1.CCCCCCCC[n+]1ccn(C)c1.[Cl][Cu-2]([Cl])([Cl])[Cl]
// result 941.6

// query What does the data say about its MIC? Entry: CCCCCCCCCCCCCC[n+]1ccn(C)c1.[Br][Ag-][Br]
// result 18.05

// query MIC for CCCCCCCCCCCCCC[n+]1cccc2ccccc21.[Br-] ?
// result 5.8

// query For the molecule CCCCCCCCCCCCCCCCCC[n+]1ccn(C)c1.[Br][Ag-][Br] , what MIC is on record?
// result 65.87

// query What does the data say about its MIC? Entry: CCCCCCCCCCCCCCn1cc[n+](C)c1.CCCCCCCCCCCCCCn1cc[n+](C)c1.[Cl][Cu-2]([Cl])([Cl])[Cl]
// result 20.01

// query Need MIC, item CCCCCCCCCCCCCCCCn1cc[n+](C)c1.CCCCCCCCCCCCCCCCn1cc[n+](C)c1.[Cl][Cu-2]([Cl])([Cl])[Cl]
// result 44.81

// query I'd like to know its MIC. The molecule in question is CCCCCCCCCC[n+]1cccc2ccccc21.[Br-]
// result 111.5
